MEASUREMENT TARGET: CDK12 (Homo sapiens)
Sequence (Q9NYV4 whole entry): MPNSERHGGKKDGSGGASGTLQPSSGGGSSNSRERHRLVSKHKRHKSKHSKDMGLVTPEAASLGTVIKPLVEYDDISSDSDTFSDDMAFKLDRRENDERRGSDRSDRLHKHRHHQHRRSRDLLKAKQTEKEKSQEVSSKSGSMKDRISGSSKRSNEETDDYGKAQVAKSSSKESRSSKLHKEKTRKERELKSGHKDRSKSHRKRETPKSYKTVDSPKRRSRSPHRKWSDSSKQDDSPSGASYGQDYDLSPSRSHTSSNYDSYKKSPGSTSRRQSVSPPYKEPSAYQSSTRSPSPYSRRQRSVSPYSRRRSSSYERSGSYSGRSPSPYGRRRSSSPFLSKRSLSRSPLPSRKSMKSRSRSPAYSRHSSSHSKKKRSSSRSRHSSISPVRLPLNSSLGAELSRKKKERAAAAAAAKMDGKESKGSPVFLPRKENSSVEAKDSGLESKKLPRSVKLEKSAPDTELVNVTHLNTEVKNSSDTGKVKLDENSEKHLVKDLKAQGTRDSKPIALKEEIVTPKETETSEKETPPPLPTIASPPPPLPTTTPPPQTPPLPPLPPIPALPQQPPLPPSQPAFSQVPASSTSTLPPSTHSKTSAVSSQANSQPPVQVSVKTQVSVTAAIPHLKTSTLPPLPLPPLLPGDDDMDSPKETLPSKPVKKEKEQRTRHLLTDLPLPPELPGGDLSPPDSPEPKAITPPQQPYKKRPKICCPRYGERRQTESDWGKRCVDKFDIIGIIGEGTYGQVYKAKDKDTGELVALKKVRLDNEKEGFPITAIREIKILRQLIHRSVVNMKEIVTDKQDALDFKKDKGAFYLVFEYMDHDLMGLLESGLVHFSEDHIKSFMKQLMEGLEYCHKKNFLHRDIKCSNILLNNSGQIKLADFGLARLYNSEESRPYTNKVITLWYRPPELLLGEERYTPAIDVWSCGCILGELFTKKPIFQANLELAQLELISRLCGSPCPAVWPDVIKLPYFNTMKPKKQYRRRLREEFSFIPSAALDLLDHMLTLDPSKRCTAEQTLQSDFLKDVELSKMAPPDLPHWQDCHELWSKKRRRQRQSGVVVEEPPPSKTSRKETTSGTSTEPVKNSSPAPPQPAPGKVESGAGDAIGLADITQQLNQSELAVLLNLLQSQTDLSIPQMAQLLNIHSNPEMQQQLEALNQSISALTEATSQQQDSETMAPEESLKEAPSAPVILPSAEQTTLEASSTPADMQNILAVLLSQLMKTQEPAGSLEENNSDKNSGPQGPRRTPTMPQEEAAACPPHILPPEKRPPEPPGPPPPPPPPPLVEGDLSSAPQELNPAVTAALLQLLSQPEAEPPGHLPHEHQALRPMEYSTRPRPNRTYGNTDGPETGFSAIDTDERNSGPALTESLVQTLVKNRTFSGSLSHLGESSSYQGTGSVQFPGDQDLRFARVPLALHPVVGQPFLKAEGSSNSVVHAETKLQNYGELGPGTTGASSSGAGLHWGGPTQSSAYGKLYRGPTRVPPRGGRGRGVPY
Sequence (O75909 whole entry partner): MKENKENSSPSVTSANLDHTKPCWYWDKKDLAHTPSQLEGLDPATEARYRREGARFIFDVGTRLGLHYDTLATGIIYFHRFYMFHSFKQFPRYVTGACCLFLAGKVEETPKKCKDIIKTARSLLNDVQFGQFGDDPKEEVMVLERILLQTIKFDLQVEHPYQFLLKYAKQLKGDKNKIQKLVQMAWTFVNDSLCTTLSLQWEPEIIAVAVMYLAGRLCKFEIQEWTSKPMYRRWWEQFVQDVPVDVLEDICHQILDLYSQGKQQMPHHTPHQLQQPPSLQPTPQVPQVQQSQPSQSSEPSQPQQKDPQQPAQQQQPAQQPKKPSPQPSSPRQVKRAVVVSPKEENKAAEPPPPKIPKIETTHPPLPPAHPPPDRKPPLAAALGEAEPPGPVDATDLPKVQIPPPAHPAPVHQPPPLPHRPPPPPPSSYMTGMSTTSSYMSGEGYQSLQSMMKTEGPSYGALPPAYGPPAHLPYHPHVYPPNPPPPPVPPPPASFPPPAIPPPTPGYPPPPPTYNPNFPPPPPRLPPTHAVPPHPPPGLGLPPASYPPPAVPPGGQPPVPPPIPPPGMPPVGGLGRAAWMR
TEST SUMMARY: Biochemical assay for CDK12 (LANCE TR-FRET, IC50 determination)
ASSAY SETUP: compound at 10 μM; read-out: CDK12 % Inhibition @ 10 μM
OBSERVATION TYPE: inhibition at 10 µM (%)

P = N#CN1CC=C(c2ccc(CC(=O)Nc3ccc(Cl)cn3)cn2)CC1
Q = CC(CN(C)C)Oc1cc(NC(=O)Cc2ccc(C3=CCCN(C#N)C3)nc2)ncc1Cl (centres unmarked)
Identify the item whose inhibition at 10 µM is the smaller number: P or Q Answer with the label corresponding to your selection.
P
(P: 75%, Q: 116%)

I = COc1cc(NC(=O)Cc2ccc(-c3ccc(CN(C)C#N)nc3)nc2)ncc1Cl
II = CN1CCN(c2cc(NC(=O)Cc3ccc(C4=CCN(C#N)CC4)nc3)ncc2Cl)CC1
// task: argmin of inhibition at 10 µM over [ I , II ] I would appreciate it if you answered with the label of your choice.
II

I = N#CN1CCC=C(c2ccc(CC(=O)Nc3ccc(C4CC4)cn3)cn2)C1
II = COc1cc(NC(=O)C(C)(C)c2ccc(C3=CCCN(C#N)C3)nc2)ncc1Cl
So which one has the bigger inhibition at 10 µM here, I or II ? Return value: the label identifying the chosen record.
I

I = COc1cc(NC(=O)C(C)c2ccc(C3=CCN(C#N)CC3)nc2)ncc1Cl (single isomer, unassigned) [Compound 52]
II = COc1cc(NC(=O)Cc2ccc(-c3ccc(C#N)cc3)nc2)ncc1Cl
Given the listed items, does I or II have the lesser reported inhibition at 10 µM? Field: selected label. Fill in the label of the entry you choose.
II
